Listed below: RU values for each entry.
# Tested target: gEgI WT: HSV2 gEgI heterodimer comprising gE and gI wildtype ectodomains (HSV2, UniProt P89475 21-416; P06764 21-256)
# Experiment description: SPR binning; gEgI captured by mAb 9
Measure name: RU

Binder	Recorded result
mAb clone 24 (antibody, V domains shown) VH: EVQLQQSGPELVKPGASVKMSCKASGYTFTDYYMKWVKQSHGKSLEWIGDINPNNGDTFYNQKFKGKATLTVDKSSSTAYMQLNSLTSEDSAVYYCARRGFYYYGSRGGIMDYWGQGTSVTVSS VL: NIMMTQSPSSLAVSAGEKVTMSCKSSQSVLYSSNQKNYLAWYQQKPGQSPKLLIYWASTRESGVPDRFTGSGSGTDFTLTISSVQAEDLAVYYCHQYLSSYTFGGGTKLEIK	17 RU
mAb clone 34 (antibody, V domains shown) VH: EVKLVESGGGLVQPGGSLKLSCATSGFTFSDYYMYWVRQTPEKRLEWVAYISNGGDSTYYPDTVKGRFTISRDNAKNTLYLQMSRLKSEDTAMYYCARSYYGNPFPYWGQGTLVTVSA VL: ENVLTQSPAIMSASPGEKVTMTCRASSSVSSSYLHWYQQKSGASPKLWIYSTSNLASGVPARFSGSGSGTSYSLTISSVEAEDAATYYCQQYSGYPLTFGAGTKLELK	-3.9 RU

The measurements presented in this section are drawn from patent US20230331820A1.
